experimental-target: Human Recombinant Matriptase 2 (Homo sapiens, UniProt Q8IU80)
Construct: made in house
Sequence (Q8IU80 1-811): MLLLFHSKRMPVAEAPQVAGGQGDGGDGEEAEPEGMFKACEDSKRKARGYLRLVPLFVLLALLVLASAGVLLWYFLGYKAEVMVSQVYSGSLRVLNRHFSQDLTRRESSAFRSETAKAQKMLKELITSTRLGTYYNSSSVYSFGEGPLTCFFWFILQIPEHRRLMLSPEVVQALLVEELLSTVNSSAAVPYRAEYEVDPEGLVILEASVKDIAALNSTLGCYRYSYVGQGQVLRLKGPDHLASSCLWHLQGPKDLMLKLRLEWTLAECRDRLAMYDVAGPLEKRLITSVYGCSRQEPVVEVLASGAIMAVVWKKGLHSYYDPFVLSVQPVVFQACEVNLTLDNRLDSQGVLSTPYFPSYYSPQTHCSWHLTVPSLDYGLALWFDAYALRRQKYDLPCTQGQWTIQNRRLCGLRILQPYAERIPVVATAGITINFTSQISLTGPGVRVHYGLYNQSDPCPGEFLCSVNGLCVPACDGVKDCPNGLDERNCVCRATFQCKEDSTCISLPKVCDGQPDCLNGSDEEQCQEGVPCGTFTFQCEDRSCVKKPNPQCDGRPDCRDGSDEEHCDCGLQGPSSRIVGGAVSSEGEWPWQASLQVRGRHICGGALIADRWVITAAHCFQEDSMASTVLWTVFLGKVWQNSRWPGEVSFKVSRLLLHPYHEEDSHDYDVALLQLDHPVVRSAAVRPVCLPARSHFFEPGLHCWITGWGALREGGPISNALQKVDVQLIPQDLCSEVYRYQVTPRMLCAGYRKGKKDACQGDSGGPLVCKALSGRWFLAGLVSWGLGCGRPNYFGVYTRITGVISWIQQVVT
experiment-description: Matriptase 2 inhibition, fluorescence based assay (Method I)
Format: biochemical
run-parameters: Table A; Ki of Matriptase-2; read-out: Mat-2 Ki
Task for the reader: assign each of the following compounds its reported Ki.

NCc1ccc2cc(C(=O)OCC3CCN(C=O)CC3)n(Cc3cc(NS(=O)(=O)Cc4ccsc4)cc4ccccc34)c2n1 ... ≤ 0.1 µM
NCc1ccc2cc(C(=O)OCCn3cnnn3)n(Cc3cc(NS(=O)(=O)Cc4ccccc4)cc4ccccc34)c2n1 ... 0.1 to 0.5 µM

# return Ki for each item in the list
1. NCc1ccc2cc(C(=O)NCCS(N)(=O)=O)n(Cc3cc(NS(=O)(=O)Cc4ccccc4)cc4ccccc34)c2n1
2. CN1CCC(CCOC(=O)c2cc3ccc(CN)nc3n2Cc2cc(NS(=O)(=O)Cc3cccs3)cc3ccccc23)CC1
3. CN(CCOC(=O)c1cc2ccc(CN)nc2n1Cc1cc(NS(=O)(=O)Cc2ccccc2)cc2ccccc12)c1ccccc1

A:
["≤ 0.1 µM", "≤ 0.1 µM", "0.5 to 3 µM"]

* * *

experimental-target: Human Recombinant Matriptase 2 (Homo sapiens, UniProt Q8IU80)
Construct: made in house
Sequence (Q8IU80 1-811): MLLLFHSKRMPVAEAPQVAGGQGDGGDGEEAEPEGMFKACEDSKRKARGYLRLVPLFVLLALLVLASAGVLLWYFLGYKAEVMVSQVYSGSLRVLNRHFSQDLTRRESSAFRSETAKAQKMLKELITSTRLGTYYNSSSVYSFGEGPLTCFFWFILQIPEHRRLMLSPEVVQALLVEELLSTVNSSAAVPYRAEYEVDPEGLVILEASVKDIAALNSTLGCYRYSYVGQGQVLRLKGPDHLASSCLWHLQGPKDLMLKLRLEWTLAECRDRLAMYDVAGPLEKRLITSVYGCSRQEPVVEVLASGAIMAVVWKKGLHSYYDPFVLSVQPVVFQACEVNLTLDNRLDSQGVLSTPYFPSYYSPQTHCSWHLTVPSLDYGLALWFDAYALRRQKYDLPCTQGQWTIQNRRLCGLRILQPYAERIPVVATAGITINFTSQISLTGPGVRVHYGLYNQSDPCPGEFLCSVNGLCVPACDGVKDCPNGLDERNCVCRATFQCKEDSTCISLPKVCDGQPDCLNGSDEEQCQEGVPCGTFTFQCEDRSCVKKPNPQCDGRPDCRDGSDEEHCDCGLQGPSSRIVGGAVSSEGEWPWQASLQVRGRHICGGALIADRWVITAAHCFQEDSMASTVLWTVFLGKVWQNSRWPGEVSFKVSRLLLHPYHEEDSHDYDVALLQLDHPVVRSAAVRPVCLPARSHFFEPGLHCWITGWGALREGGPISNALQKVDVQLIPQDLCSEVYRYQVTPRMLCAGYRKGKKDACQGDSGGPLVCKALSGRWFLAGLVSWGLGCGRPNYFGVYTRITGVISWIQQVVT
experiment-description: Matriptase 2 inhibition, fluorescence based assay (Method I)
Format: biochemical
run-parameters: Table A; Ki of Matriptase-2 given as class symbols; read-out: Mat-2 Ki
attribute-measured: Ki

Field: example entries. Status: answers known.
C[C@H]1CN(C(=O)Nc2cc(Cn3c(C(=O)O)cc4ccc(CN)nc43)c3ccccc3c2)CCN1 ... 500 to 3000 nM
CCOC(=O)c1cc2ccc(CN)nc2n1Cc1cc(NS(=O)(=O)Cc2c(C)cccc2C)cc2ccccc12 ... 500 to 3000 nM
NCc1ccc2cc(CO)n(Cc3cc(NS(=O)(=O)Cc4ccccc4)cc4ccccc34)c2n1 ... 500 to 3000 nM

# return Ki for each item in the list
1. C[C@H]1CCC(C)(C)N1C(=O)Nc1cc(Cn2c(C(=O)O)cc3ccc(CN)nc32)c2ccccc2c1 (racemic)
2. Cn1ccnc1COC(=O)c1cc2ccc(CN)cc2n1Cc1cc(NS(=O)(=O)Cc2ccccc2)cc2ccccc12
3. CN1CCC(COC(=O)c2cc3ccc(CN)nc3n2Cc2cc(NS(=O)(=O)CC3CCNCC3)cc3ccccc23)CC1
4. CN(C)CCCCS(=O)(=O)Nc1cc(Cn2c(C(=O)O)cc3ccc(CN)nc32)c2ccccc2c1

A:
500 to 3000 nM
≤ 100 nM
500 to 3000 nM
100 to 500 nM
